Measured composite z-score by item
method.summary: small-molecule binders of probe aNOTCH2, primary screen, biochemical, small-molecule microarray, 635/667 nm fluorescence (AID 1121);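 also: score merges feature fluorescence read at 667 nm with its signal to noise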
measurement.parameters: higher = more signal

See these solved cases before continuing.
Memo: `CCOC(=O)C1=CC[C@@H](c2cccc(Cl)c2)N(S(=O)(=O)c2ccc(C)cc2)C1` , reported composite z-score: -0.0488

Form field composite z-score, entry `COCCOC(=O)N1C(=O)[C@@]2(c3cc(C#CCC(C(=O)OC)C(=O)OC)ccc31)[C@H](C(=O)N1CCc3cc(OC)c(OC)cc3C1)[C@H]1C(=O)O[C@H](c3ccccc3)[C@H](c3ccccc3)N1[C@@H]2c1ccc(OCCO)cc1` : -0.0357

The measured composite z-score associated with `COCCOC(=O)N1C(=O)[C@@]2(c3cc(C#CC4=CCCCC4)ccc31)[C@H](C(=O)N1CCCCCCC1)[C@H]1C(=O)O[C@H](c3ccccc3)[C@H](c3ccccc3)N1[C@@H]2c1ccc(O)cc1` reads 0.103

// composite z-score lookup, compound = `CCOC(=O)C1=CC[C@@H](c2ccc(OCc3ccccc3)c(OC)c2)N(S(=O)(=O)c2ccc(C)cc2)[C@H]1c1ccc(SC)cc1` , result: 0.202

Note to self: composite z-score recorded for `[N-]=[N+]=Nc1ccccc1[C@H]1OC(c2ccc(OCCCO)cc2)=N[C@@]1(Cc1ccccc1)C(=O)N1CCCCC1` was 0.208

Consider `O=C(CS)NCCCCCNC(=O)[C@@H]1C[C@@H]2C(=O)N3CCC[C@H]3C(=O)N2[C@@H]1c1cccc(OCCO)c1` . Its measured composite z-score is -0.258

Documented composite z-score of C=CCC(OC(C)=O)[C@@H]1[C@@H](N(Cc2ccc(-c3cccc(C(F)(F)F)c3)o2)C(=O)c2ccc(-c3ccccc3)cc2)c2cc(OCCCO)ccc2N1C(=O)c1ccc2ccccc2n1 (some centres undefined) : 0.357

Entry `COc1cc(CO)cc(I)c1O[C@H]1C=C(C(=O)NCCO)C[C@@H](NCc2ccc(F)cc2)[C@@H]1O` ; composite z-score = -0.148

Others:
The compound identified as `COC(=O)[C@@]1(Cc2ccc(F)cc2)[C@H]2c3cc(C(=O)N4CCCC4)n(CCc4ccc(O)c(O)c4)c3C[C@H]2CN1C(=O)c1ccccc1` registered its composite z-score at 0.89

In plain terms, `CC(C)N1C(=O)c2ccccc2[C@@H](C(=O)NC2CC2)[C@@H]1c1ccc(CO)cc1` has a documented composite z-score of -0.161

Memo: `C=C(COC)C(=O)CC[C@@H](OC(=O)c1cccnc1)c1ccc(OCCO)cc1` , reported composite z-score: 0.0362

In plain terms, `CN(C)C(=O)[C@]1(CCS(=O)(=O)c2ccccc2)N=C(c2ccc(OCCCO)cc2)O[C@@H]1c1ccccc1N=[N+]=[N-]` has a documented composite z-score of 0.111

Recorded composite z-score (compound `COCCOC(=O)N1C(=O)[C@@]2(c3cc(C#CC4=CCCCC4)ccc31)[C@H](C(N)=O)[C@H]1C(=O)O[C@H](c3ccccc3)[C@H](c3ccccc3)N1[C@@H]2c1ccccc1OCCO` ): -0.114

Reported composite z-score of `CC1=C([C@H](O)CCc2ccccc2)[C@H](CO)[C@@H]2C(=O)N(C)C(=O)[C@@H]2C1` : 0.0592
